biological target: T1, ZIKV (prM80E) with a C-terminal myc-myc-hexahistidine tag (Zika virus, UniProt A0A024B7W1 104-694); test: SPR, mAb captured, 37C
T1 construct: also called ZIKV (prM80E)-mmH; ZIKV-mmH
pKd: −log10 of the molar value.
pKd values for the binders below.
metric: pKd

binder	metric	val
H4H25598P (antibody, V domains shown) VH: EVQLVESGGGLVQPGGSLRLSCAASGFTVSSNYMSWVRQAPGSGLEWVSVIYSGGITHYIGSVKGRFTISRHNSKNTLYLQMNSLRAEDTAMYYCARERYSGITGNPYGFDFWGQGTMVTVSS VL: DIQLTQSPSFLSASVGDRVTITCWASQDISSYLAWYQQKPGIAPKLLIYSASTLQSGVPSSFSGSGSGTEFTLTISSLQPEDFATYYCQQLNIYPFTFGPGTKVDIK	pKd	9.15
H4H25710N (antibody, V domains shown) VH: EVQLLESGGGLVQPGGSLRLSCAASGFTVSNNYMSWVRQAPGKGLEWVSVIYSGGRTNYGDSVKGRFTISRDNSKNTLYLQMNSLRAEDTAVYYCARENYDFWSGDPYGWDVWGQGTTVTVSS VL: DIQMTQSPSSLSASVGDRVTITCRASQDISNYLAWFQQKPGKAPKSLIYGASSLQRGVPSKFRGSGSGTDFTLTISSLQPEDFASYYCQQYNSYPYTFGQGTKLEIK	pKd	7.91
H4H25641P (antibody, V domains shown) VH: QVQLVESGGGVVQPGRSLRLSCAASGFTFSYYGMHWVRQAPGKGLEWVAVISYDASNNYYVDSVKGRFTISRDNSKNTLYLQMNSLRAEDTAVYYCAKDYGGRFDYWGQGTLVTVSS VL: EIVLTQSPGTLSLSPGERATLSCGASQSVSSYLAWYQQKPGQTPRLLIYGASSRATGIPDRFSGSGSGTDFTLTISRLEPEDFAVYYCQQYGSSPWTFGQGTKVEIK	pKd	7.92
H4H25587P (antibody, V domains shown) VH: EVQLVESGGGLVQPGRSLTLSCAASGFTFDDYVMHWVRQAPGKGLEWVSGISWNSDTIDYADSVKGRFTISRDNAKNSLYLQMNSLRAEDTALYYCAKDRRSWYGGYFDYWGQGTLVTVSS VL: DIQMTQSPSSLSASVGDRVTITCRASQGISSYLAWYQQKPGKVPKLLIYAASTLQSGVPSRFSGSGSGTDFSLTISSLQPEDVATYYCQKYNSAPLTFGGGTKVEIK	pKd	7.88
H4H25704N (antibody, V domains shown) VH: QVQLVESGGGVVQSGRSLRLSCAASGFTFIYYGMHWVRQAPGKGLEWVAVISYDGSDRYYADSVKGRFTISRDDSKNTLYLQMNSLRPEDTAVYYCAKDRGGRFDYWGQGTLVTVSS VL: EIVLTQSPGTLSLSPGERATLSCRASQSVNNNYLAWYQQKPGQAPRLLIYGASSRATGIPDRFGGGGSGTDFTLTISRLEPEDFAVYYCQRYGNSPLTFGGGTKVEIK	pKd	9.21
